Target Of Assay: T1, RSV strain A2 pre-fusion F protein (SC-TM) (human respiratory syncytial virus …, UniProt P03420 26-513)
T1 construct: not shown: fold-on trimerization domain and polyhistidine tag
Method Description: ELISA, F protein coated
Measured Endpoint: EC50 (µg/mL)
Answer format: numeric, µg/mL implied, no suffix.

{"Binder": "hRSV97 (antibody, V domains shown) VH: EVQLVESGGTLVQPGRSLRLSCAASGFNFEEYAMHWVRQVPGKGLEWVARINWNGGIIGYADSVKGRFTISRDNAKKSLYLQMNSLRTDDSALYYCGKDVFWAVAGTGGPIDSWGQGTLVTVSS VL: DIVMTQSPSSLSASIGDRVTISCRASRDISNYLAWYQQKSGKVPKLLIYAASTLESGVPSRFSGSGSGTDFTLTISSLQPEDVATYYCQNYNSAQMCSFGQGPSLEIK", "EC50 (µg/mL)": 0.053}

Note to self: EC50 recorded for hRSV61 (antibody, V domains shown) VH: QVQLVQSGAELKKPGASVKVSCKASGYTFTNHGITWVRQAPGQGLEWMSWISGYNGNTQYAQKFQGRVTMTTDTSTRTAYMELRSLTSDDTAVYYCARDNGVVVGPPDYWGQGTLVTVSS VL: DIQMTQSPSTLSASVGDRVTISCRASQSISSWLAWYQQKPGKPPKLLIYKASGLQTGVPSRFSGSGSGTEFTLTISSLQPDDFATYYCQYYHSLSAFGQGTKVEIK was 0.027

Note to self: EC50 recorded for hRSV106 (antibody, V domains shown) VH: QITLKESGPTLVKPTQTLTLTCTFSGFSLTTRGVGVAWIRQPPGKALEWLALIYWDDDKRYRSSPKGRLTITKDNSKNQVVLIMTNMDPVDTATYYCAHAMDDSGSYYVGLSKDPHFDSWGHGTLVTVSS VL: SYELTQPPSVSVSPGQTASITCSGDVLFNKFASWYQQKPGQSPVLVIYQDSKRPSGIPERFSGSNSGNTATLTIRGTQAMDEADYYCQARGSTAAHVIFGGGTKVTVL was 0.046

Note to self: EC50 recorded for hRSV12 (antibody, V domains shown) VH: QVQLVQSGAEVKKPGTSVRVSCKTSGYNFMNYGIYWVRQAPGQGLEWVGWISAYNGQTDRAQKFQGRVTMTTDISTNTGYMDLRSLRSDDTAVYFCARGPPVIAAVSLEYWGRGTLVTVSS VL: EVVMTQSPLSLPVTLGQPASISCKSSQSLVHSNGDTYLNWFQQRPGQSPRRLIYKVSNRDSGVPDRFSGSGSGTDFTLKISRVETEDVGVYYCMQATHWPGSFGQGTKLEIK was 0.028

Note to self: EC50 recorded for hRSV75 (antibody, V domains shown) VH: EVQLVESGGGLVKPGGSLRLSCAASGFTFRSYSMNWVRQAPGKGLEWVSSITSSSSYIDYADSVKGRFTISRDNAKNSLYLQMNSLRAEDTAVYYCARAYCGGDCSVDHFQHWGQGTLVTVSS VL: QSVLTQPPSVSGAPGQRVTISCTGSSSNIGAGYDVHWYQHLPGTAPKLLIYVNSNRPSGVPDRFSASKSGTSASLAITGLQAEDEADYYCQSYDKSLSGFYVFGTGTKVTVL was 0.044
